Some compounds, each annotated with its measured pIC50.
system: CAL-120, human breast adenocarcinoma cells; assay: Proliferation assay CAL-120 (crystal violet, 4 days); type: cell-based; conditions: Homo sapiens, CAL-120, 96 h, CAL-120 cells, median, read-out: Prolif-CAL-120, IC50-[mol/l] (median)
A value of pIC50 is the negative decimal logarithm of a concentration given in moles per litre.

Consider the worked cases shown below.
Fc1ccc2[nH]c(CNc3nc(N4C[C@@H]5CCCN[C@@H]5C4)nc4c(C5CC5)cnn34)nc2c1F    8.58
Clc1cc2nc(CNc3nc(N4CC5CCC(C4)N5)nc4c(Br)cnn34)[nH]c2cc1Cl    8.76
c1ccc2[nH]c(CNc3nc(N4C[C@@H]5C[C@H]4CO5)nc4c(C5CC5)cnn34)nc2c1    7.06
Fc1ccc2[nH]c(CNc3nc(N4CCOCC4)nc4c(CC(F)(F)F)cnn34)nc2c1    7.99

Inquiry: pIC50 lookup needed for O=C(O)C(F)(F)F.c1ccc2[nH]c(CNc3nc(N4CCOCC4)nc4c(-c5ccnnc5)cnn34)nc2c1 , thanks.
Reply text: 7.35

Inquiry: Repeat with Brc1cnn2c(NCc3nnc(-c4ccccc4)[nH]3)nc(N3C[C@@H]4C[C@H]3CO4)nc12
Reply text: 7.60

Inquiry: Another compound to check: Brc1cnn2c(NCc3nnc(-c4ccccc4)[nH]3)nc(N3CCCCC3)nc12
Reply text: 7.36

Inquiry: Another compound to look at: Brc1cnn2c(NCc3nc4ccccc4[nH]3)nc(N3CC4CCC3CN4)nc12 (centres unmarked)
Reply text: 8.15

Inquiry: Please do the same for Fc1ccc(-c2nnc(CNc3nc(N4CCOCC4)nc4c(Br)cnn34)[nH]2)cc1F as well.
Reply text: 7.26

Inquiry: What about Cc1ccc(-c2nnc(CNc3nc(N4CCOCC4)nc4c(Br)cnn34)[nH]2)cc1F ?
Reply text: 6.94

Inquiry: One more compound: Clc1ccc(-c2nnc(CNc3nc(N4CCOCC4)nc4c(Br)cnn34)[nH]2)cc1
Reply text: 7.05

Inquiry: // query: C[C@@H]1CN(c2nc(NCc3nc4cc(F)ccc4[nH]3)n3ncc(C4CC4)c3n2)C[C@H](C)N1
Reply text: 8.94

Inquiry: Follow-up entry: COc1cccc2nc(CNc3nc(N4CCN(C)CC4)nc4c(-c5nccs5)cnn34)[nH]c12
Reply text: 6.45

Inquiry: Repeat with CCNC1CCN(c2nc(NCc3nc4ccccc4[nH]3)n3ncc(Br)c3n2)CC1
Reply text: 7.79

Inquiry: Query Brc1cnn2c(NCc3nc4ccccc4[nH]3)nc(N3CC4CCC(C3)N4)nc12 next
Reply text: 8.28

Inquiry: What do you get for CN1CCN(c2nc(NCc3nc4cc(C(F)(F)F)ccc4[nH]3)n3ncc(C4CC4)c3n2)CC1 ?
Reply text: 8.02

Inquiry: And Cc1cccc2[nH]c(CNc3nc(N4CCOCC4)nc4c(Br)cnn34)nc12 ?
Reply text: 7.74

Inquiry: Also, CCc1cnn2c(NCc3nc4c(F)c(F)ccc4[nH]3)nc(N3CCN(C)CC3)nc12.O=CO please.
Reply text: 8.75

Inquiry: What do you get for CC1(O)CCN(c2nc(NCc3nc4ccccc4[nH]3)n3ncc(Br)c3n2)C1 (centres unmarked) [Example 225] ?
Reply text: 7.20

Inquiry: Entry C[C@@]1(O)CCN(c2nc(NCc3nc4ccccc4[nH]3)n3ncc(Br)c3n2)C1 (single isomer, unassigned) please
Reply text: 7.07

Inquiry: // next record FC1(F)CC1c1cnn2c(NCc3nc4ccccc4[nH]3)nc(N3CCOCC3)nc12 (centres unmarked)
Reply text: 7.76

Inquiry: Same question for Brc1cnn2c(NCc3nc4ccccc4[nH]3)nc(N3C[C@H]4CC[C@@H]3CO4)nc12 (single isomer, unassigned) please.
Reply text: 7.94

Inquiry: Next compound up: C[C@H]1CN(c2nc(NCc3nnc(-c4cccc(F)c4)[nH]3)n3ncc(Br)c3n2)CCN1C
Reply text: 8.11

Inquiry: Lookup Cc1cccc2[nH]c(CNc3nc(N4CCN(C)CC4)nc4c(Br)cnn34)nc12
Reply text: 7.61

Inquiry: Item: Brc1cnn2c(NCc3nc4ccccc4[nH]3)nc(OC3CCCCC3)nc12
Reply text: 7.21
